# key: entry, value: Δω●τM (exchange limit regime)
Assay: Bound water lifetime τM^298 of Ln(1)^3+ complexes by fitting temperature dependent 17O NMR bound water line widths; exchange limit regime Δω•τM calculated
Type: physicochemical
Settings: 4.7 T

{"columns": ["smiles text", "Δω●τM (exchange limit regime)"],
 "data": [
  ["CCOC(=O)CNC(=O)CN1CCN(CC(=O)NCC(=O)OCC)CCN(CC(=O)NCC(=O)OCC)CCN(CC(=O)NCC(=O)OCC)CC1.[Tm+3]", 1.9],
  ["CCOC(=O)CNC(=O)CN1CCN(CC(=O)NCC(=O)OCC)CCN(CC(=O)NCC(=O)OCC)CCN(CC(=O)NCC(=O)OCC)CC1.[Nd+3]", 3.2],
  ["CCOC(=O)CNC(=O)CN1CCN(CC(=O)NCC(=O)OCC)CCN(CC(=O)NCC(=O)OCC)CCN(CC(=O)NCC(=O)OCC)CC1.[Pr+3]", 1.5],
  ["CCOC(=O)CNC(=O)CN1CCN(CC(=O)NCC(=O)OCC)CCN(CC(=O)NCC(=O)OCC)CCN(CC(=O)NCC(=O)OCC)CC1.[Er+3]", 2.3],
  ["CCOC(=O)CNC(=O)CN1CCN(CC(=O)NCC(=O)OCC)CCN(CC(=O)NCC(=O)OCC)CCN(CC(=O)NCC(=O)OCC)CC1.[Yb+3]", 0.5],
  ["CCOC(=O)CNC(=O)CN1CCN(CC(=O)NCC(=O)OCC)CCN(CC(=O)NCC(=O)OCC)CCN(CC(=O)NCC(=O)OCC)CC1.[Tb+3]", 23.4]
]}
